biological target: T1, human CD26-derived 13 mer peptide 24 (human); assay: peptide microarray
T1 peptide: TFDEFGHSINDYS

{"columns": ["binder", "Mean Signal Value"],
 "data": [
  ["rhuMAb 412 (antibody, human IgG1, V domains shown, X385 VH and X380 VL with human IgG1 and human kappa constant regions; also called X412) VH: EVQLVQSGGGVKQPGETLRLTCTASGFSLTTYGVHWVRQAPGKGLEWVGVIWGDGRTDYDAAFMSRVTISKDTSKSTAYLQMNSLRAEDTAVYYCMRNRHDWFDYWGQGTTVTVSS VL: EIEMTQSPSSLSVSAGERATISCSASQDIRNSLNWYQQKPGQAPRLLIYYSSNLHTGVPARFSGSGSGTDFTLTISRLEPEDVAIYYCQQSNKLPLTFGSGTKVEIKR", 0]
]}

The measured values listed here are drawn from patent US20070105771A1.
